The origin of these recorded values is the Human Domainome abundance scans (Beltran et al. 2025).

Answer each item with its documented abundance fitness.
B1: Steroid hormone receptor ERR2, residues 100 to 176; numbered along this chain, O95718 (parent)
chain: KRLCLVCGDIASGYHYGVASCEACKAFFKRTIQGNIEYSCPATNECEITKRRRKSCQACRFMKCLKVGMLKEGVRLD

Variants of: B1
Assay: abundance fitness (aPCA) (normalised: wild type 0, dead -1); higher = more abundant; growth selection in yeast, the domain comes from the species named
Settings: Homo sapiens

Param item = `K1D` ; retrieve measured abundance fitness.
-0.089

Param item = `P41Y` ; retrieve measured abundance fitness.
0.018

Param item = `C56S` ; retrieve measured abundance fitness.
-0.847

Param item = `E47V` ; retrieve measured abundance fitness.
-0.14

Param item = `S39L` ; retrieve measured abundance fitness.
0.283

Param item = `A19L` ; retrieve measured abundance fitness.
-0.046

Param item = `L5V` ; retrieve measured abundance fitness.
-0.424

Param item = `R2W` ; retrieve measured abundance fitness.
-0.338

Param item = `V18A` ; retrieve measured abundance fitness.
-0.26

Param item = `Y16D` ; retrieve measured abundance fitness.
0.008

Param item = `T49R` ; retrieve measured abundance fitness.
-0.2

Param item = `C40G` ; retrieve measured abundance fitness.
-0.711

Param item = `C21Q` ; retrieve measured abundance fitness.
-1.01
